# System: Tov-21-G
# Experiment Description: Primary qHTS to identify gynecologic anti-cancer compounds using libraries of approved drugs and bioactive compounds (AID 1345084); further: nearly all actives have a fitted effect of over 55% in size; further: potency means the concentration at half of the fitted maximal effect
# Measurement Setup: Gynecologic cancer cell panel viability, ATPlite luminescence, 48 h; series mostly up to 57.5 µM
Inconclusive results are not listed. Active and inactive are the calls of the source. The call rests on the fitted dose curve; in most records, active means well fitted cell-killing curve with a large enough effect; inconclusive means small, poorly fitted or top-dose-only effect, or effect the other way; inactive means flat fitted curve, though single readings scatter.

Compound	Potency
CC(C)(C)Nc1nc2cc(Cl)c(Cl)cc2nc1S(C)(=O)=O	28.2 µM (active)
CC(C)=CCC[C@](C)(O)[C@H]1CC[C@]2(C)[C@@H]1[C@H](O)CC1[C@@]3(C)CC[C@H](O)C(C)(C)[C@@H]3[C@@H](O[C@@H]3O[C@H](CO)[C@@H](O)[C@H](O)[C@H]3O[C@@H]3O[C@H](CO)[C@@H](O)[C@H](O)[C@H]3O)C[C@]12C (some centres not stated)	inactive
CC(=O)O[C@@H]1[C@@H](O)[C@H](C)O[C@@H](O[C@H]2[C@@H]3C=CO[C@@H](O[C@@H]4O[C@H](CO)[C@@H](O)[C@H](O)[C@H]4O)[C@@H]3[C@@]3(CO)O[C@@H]23)[C@@H]1OC(=O)/C=C/c1ccccc1	inactive
COCCOc1cnc2ccn([C@H](C)c3nnc4c(F)cc(-c5cnn(C)c5)cn34)c(=O)c2c1	inactive
Cc1ccc(F)cc1C(=O)Nc1ccc(C(=O)N2Cc3cccn3Cc3ccccc32)c(Cl)c1	inactive
Cc1cccc(Oc2cnc(=O)[nH]c2)c1	inactive
Nc1ncnc2c1nc(N)n2[C@@H]1O[C@H](CO)[C@@H](O)[C@H]1O	3.16 µM (active)
O=C(/C=C/c1ccc(O)cc1)N[C@@H](Cc1ccc(O)cc1)C(=O)O	inactive
C=C(F)c1sc(CNCCCNc2cc(=O)c3ccccc3[nH]2)c(C)c1Br	inactive
N=c1nc2n(cc1F)C1OC(CO)C(O)C1O2 (configuration not stated)	inactive
O=C(O)/C=C/c1cc2c(cc1O[C@@H]1O[C@H](CO)[C@@H](O)[C@H](O)[C@H]1O)OCO2	inactive
C=C1CCC2C(C)(C)CCC[C@]2(C)[C@H]1C/C=C(\CO)C(=O)C(=O)O (some centres not stated)	inactive
CCc1c(C)nc2c(-c3cnn(-c4cc(CO)ccn4)c3)c[nH]n2c1=O	inactive
C[C@@H]1COCCN1c1cc(C2(S(C)(=O)=O)CC2)nc(-c2cccc3[nH]ccc23)n1	1.78 µM (active)
COc1cc2c(cc1OC)N1C(=O)C[C@]34C=CCN5CC[C@@H]2[C@@H](CC3)[C@]514	inactive
c1cc(OCCCN2CCCCC2)ccc1CN1CCCCC1	inactive
O=C(CC1C(=O)Nc2ccccc21)OC[C@H]1O[C@@H](OCCc2ccc(O)cc2)[C@H](O)[C@@H](O)[C@@H]1O (some centres not stated)	inactive

---

# Experimental Target: Glutathione peroxidase 1 (Homo sapiens)
# Experiment Description: Primary qHTS Assay for Inhibitors of Recombinant Selenoprotein Glutathione Peroxidase 1 (GPX1) (AID 1845191); further: nearly all actives have a fitted effect of over 65% in size; on activity, negative = inhibition: on the % scale 0 is the no-effect control and ±100 the full control effect
# Measurement Setup: recombinant GPX1, GR-coupled NADPH fluorescence, 15 min; series mostly up to 48.8 µM
Results filed as inconclusive are left out. The source made the active and inactive calls. Calls come from the whole dose curve; as a rule, active = well fitted inhibition curve with a large enough effect; inconclusive = small, poorly fitted or top-dose-only effect; inactive = flat fitted curve, though single readings scatter.
Observation Type: activity, negative = inhibition

Molecule	Observation Type	Measured Result
CC[C@H]1OC(=O)[C@H](C)[C@@H](O[C@H]2C[C@@](C)(OC)[C@@H](O)[C@H](C)O2)[C@H](C)[C@@H](O[C@@H]2O[C@H](C)C[C@H](N(C)C)[C@H]2O)[C@](C)(O)C[C@@H](C)C(=O)[C@H](C)[C@H]2OC(=O)O[C@@]21C	activity, negative = inhibition	inactive
CC/C=C/CC1=C(CCCCC(CCC(=O)O)OC(C)=O)CCC1=O (centres undefined)	activity, negative = inhibition	inactive
CC1=C2C3OC(=O)C(C)C3(O)CCC2(C)CCC1O (centres undefined)	activity, negative = inhibition	inactive
CC(=O)C12OC(C)(C)OC1CC1C3CCC4=CC(=O)C=CC4(C)C3(F)C(O)CC12C (centres undefined)	activity, negative = inhibition	inactive

---

# Test system: Zika virus NS2B-NS3 protease (linked construct)
# Experiment Description: Primary screen NINDS Rhodamine qHTS for Zika virus inhibitors (AID 1347160); further: on the % scale 0 is the no-effect control and ±100 the full control effect; nearly all actives have a fitted effect of over 55% in size
# Measurement Setup: purified NS2B-NS3 protease, Rhodamine110 substrate fluorescence; series mostly up to 57.1 µM
Results filed as inconclusive are left out. Active and inactive are the calls of the source. The call rests on the fitted dose curve; in most records, active means well fitted inhibition curve with a large enough effect; inconclusive means small, poorly fitted or top-dose-only effect; inactive means no such curve, though single readings can be large or run the other way.

Compound	Experimental Target	outcome
CCCCC1CCN(CCCC(=O)c2ccccc2C)CC1	Zika virus NS2B-NS3 protease (linked construct)	inactive
CC1(C)C2CC(OC3OC(COC4OCC(O)(CO)C4O)C(O)C(O)C3O)C1(C)CC2O (centres undefined)	Zika virus NS2B-NS3 protease (linked construct)	inactive
CC[C@]1(O)CC2CN(CCc3c([nH]c4ccccc34)[C@@](C(=O)OC)(c3cc4c(cc3OC)N(C)[C@H]3[C@@](O)(C(=O)OC)[C@H](OC(C)=O)[C@]5(CC)C=CCN6CC[C@]43[C@@H]65)C2)C1 (some centres undefined)	Zika virus NS2B-NS3 protease (linked construct)	inactive
FC(F)(F)c1ccc(Nc2nc(-c3c(C(F)(F)F)nc4ccccn34)cs2)cc1	Zika virus NS2B-NS3 protease (linked construct)	inactive

---

# Experiment Description: qHTS of pediatric cancer cell lines to identify multiple opportunities for drug repurposing: Primary screen for SK-N-SH cells (AID 1347098); further: nearly all actives have a fitted effect of over 65% in size
# Measurement Setup: SK-N-SH viability, CellTiter-Glo luminescence, 48 h; series mostly up to 57 µM
Inconclusive results are not listed. The source made the active and inactive calls. Calls follow the shape of the dose curve; as a rule, active = well fitted cell-killing curve with a large enough effect; inconclusive = small, poorly fitted or top-dose-only effect; inactive = no such curve, though single readings can be large or run the other way.
Labels: active, inactive

> print(dat)
                     substance.smiles  group.label
1                       Cc1ccc(N)cc1O       active
2  O=C(O)c1c(O)c(-c2ccccc2)nc2ccccc12     inactive
3           O=C(O)c1ccccc1NCCc1ccccc1     inactive
4        CCOCCOC(=O)/C=C/c1ccc(OC)cc1     inactive

---

# System: Es-2
# Experiment Description: Primary qHTS to identify gynecologic anti-cancer compounds using libraries of approved drugs and bioactive compounds (AID 1345084); further: nearly all actives have a fitted effect of over 55% in size
# Measurement Setup: Gynecologic cancer cell panel viability, ATPlite luminescence, 48 h; series mostly up to 57.5 µM
Results filed as inconclusive are left out. Active and inactive are the calls of the source. Calls come from the whole dose curve; as a rule, active = well fitted cell-killing curve with a large enough effect; inconclusive = small, poorly fitted or top-dose-only effect, or effect the other way; inactive = flat fitted curve, though single readings scatter.
Outcomes: class 1 for active, class 0 for inactive

Compound	Group Label
C=CC(=O)Nc1cccc(CN2C(=O)N(c3c(Cl)c(OC)cc(OC)c3Cl)Cc3cnc(NCCCCN(CC)CC)nc32)c1	class 0
COc1cc2ncnc(N3CCC(Oc4cnc5ccccc5n4)C3)c2cc1OC (configuration not stated)	class 1
COC(=O)C12CCC(C)C(C)C1C1=CCC3C4(C)CCC(OC(C)=O)C(C)(C)C4CCC3(C)C1(C)CC2 (configuration not stated)	class 0
COc1ccc(/C=C/C(=O)O[C@@H]2[C@@H](O)[C@H](C)O[C@@H](O[C@H]3[C@@H]4C=CO[C@@H](O[C@H]5O[C@@H](CO)[C@H](O)[C@@H](O)[C@@H]5O)[C@@H]4[C@@]4(CO)O[C@@H]34)[C@@H]2OC(C)=O)cc1	class 0
COC(=O)c1c(C)cc(OC(=O)c2c(C)cc(OC)cc2OC)cc1O[C@@H]1O[C@H](CO)[C@@H](O)[C@H](O)[C@H]1O	class 0
Cc1cc(C)c(CNC(=O)c2cc(-c3ccc(CN4CCOCC4)cc3)cc3c2cnn3C2CCCC2)c(=O)[nH]1	class 0
C=C1C[C@]23C[C@H]1CC[C@H]2[C@@]1(C)CCC[C@@]2(C)C(=O)O[C@@H]([C@@H]3O)[C@@H]12	class 0

---

Entries and their Potency values follow.
# Experimental Target: Phospholipid hydroperoxide glutathione peroxidase GPX4 (Homo sapiens)
# Experiment Description: Primary qHTS Assay for Inhibitors of Recombinant Selenoprotein Glutathione Peroxidase 4 (GPX4) (AID 1845192); further: potency means the concentration at half of the fitted maximal effect; nearly all actives have a fitted effect of over 65% in size
# Measurement Setup: recombinant GPX4, GR-coupled NADPH fluorescence, 15 min; series mostly up to 50 µM
Inconclusive results are not listed. Calls of active or inactive are those of the source. The call rests on the fitted dose curve; in most records, active means well fitted inhibition curve with a large enough effect; inconclusive means small, poorly fitted or top-dose-only effect; inactive means flat fitted curve, though single readings scatter.
Observation Type: Potency

> print(dat)
                                   molecule   measured.result
1   CCn1c(=O)c(-c2ccn[nH]2)cc2c(C)nc(N)nc21  2.55 µM (active)
2  CC(C)c1c2cc(-c3ccnc(NC4CCC(NC5CCOCC5)CC4)n3)ccc2nn1C (stereo not given)  9.04 µM (active)
3  COc1ccc(CN2C(=O)C(=O)c3cc(S(=O)(=O)N4CCC[C@H]4COc4cccnc4)ccc32)cc1  25.5 µM (active)
4  COc1ccc(-c2ccc3c(N4CCOCC4)nc(N4CC(C)OC(C)C4)nc3n2)cc1CO (stereo not given)  22.7 µM (active)
5  C[C@@H]1COCCN1c1cc(C2(S(C)(=O)=O)CC2)nc(-c2cccc3[nH]ccc23)n1    18 µM (active)

---

# Experimental Target: Catechol O-methyltransferase (Homo sapiens) (UniProt P21964)
# Sequence (P21964 whole entry, looked up): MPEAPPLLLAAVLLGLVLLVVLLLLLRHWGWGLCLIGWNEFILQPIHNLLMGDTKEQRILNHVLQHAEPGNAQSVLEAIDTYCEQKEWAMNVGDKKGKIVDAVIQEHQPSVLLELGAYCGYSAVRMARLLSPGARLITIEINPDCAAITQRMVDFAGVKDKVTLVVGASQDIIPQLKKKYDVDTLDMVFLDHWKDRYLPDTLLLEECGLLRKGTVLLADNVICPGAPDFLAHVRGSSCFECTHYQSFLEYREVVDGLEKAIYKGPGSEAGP
# Experiment Description: Confirmatory Screen for Target Class Profiling of Small Molecule Inhibitors of Methyltransferases (AID 1745852)
# Measurement Setup: MTase-Glo luminescence, SAH detection, recombinant enzyme; measured here: COMT max response; stronger effect = lower value
As shown below, each of these compounds has a reported activity value.
Observation Type: activity (%)

> print(dat)
                                    compound                       experimental.target  measured.result
 1  CN(CCc1ccc(Nc2ncc(-c3cccnc3)s2)cc1)Cc1ccccc1  Catechol O-methyltransferase (Homo sapiens) (UniProt P21964)           -0.695
 2  Cc1cc(N(C)C)ccc1-c1nc2ccc(-c3nc4ccc(N5CCN(C)CC5)cc4[nH]3)cc2[nH]1  Catechol O-methyltransferase (Homo sapiens) (UniProt P21964)            -4.96
 3  CCOc1cc2ncc(C#N)c(Nc3ccc(F)c(Cl)c3)c2cc1NC(=O)/C=C/CN(C)C  Catechol O-methyltransferase (Homo sapiens) (UniProt P21964)            -96.3
 4  Cc1ccc([N+](=O)[O-])cc1S(=O)(=O)N(C)/N=C/c1cnc2ccc(Br)cn12  Catechol O-methyltransferase (Homo sapiens) (UniProt P21964)            -16.2
 5  CCc1c(-c2ccccc2)c(-c2ccccc2)nn1-c1ccccc1-c1cccc(OCC(=O)O)c1  Catechol O-methyltransferase (Homo sapiens) (UniProt P21964)            -1.93
 6  CC1=C(C(=O)OCc2ccccc2)C(c2ccc(-c3ccccc3)cc2)NC(=O)N1CCCCCC(=O)O (stereo not given)  Catechol O-methyltransferase (Homo sapiens) (UniProt P21964)            -3.43
 7  CN1CCN(C2CCC(n3cc(-c4ccc(Oc5ccccc5)cc4)c4c(N)ncnc43)CC2)CC1 (stereo not given)  Catechol O-methyltransferase (Homo sapiens) (UniProt P21964)            -15.7
 8  COc1cc2ncnc(Nc3ccc(F)c(Cl)c3)c2cc1NC(=O)/C=C/CN1CCCCC1  Catechol O-methyltransferase (Homo sapiens) (UniProt P21964)            -45.2
 9  C=C1C(=O)O[C@@H]2/C=C(\C)C(=O)/C=C/[C@](C)(O)C[C@@H](OC(=O)C(C)C)[C@@H]12  Catechol O-methyltransferase (Homo sapiens) (UniProt P21964)            -80.2
10  N#Cc1ccc2[nH]cc(CCCCN3CCN(c4ccc5oc(C(N)=O)cc5c4)CC3)c2c1  Catechol O-methyltransferase (Homo sapiens) (UniProt P21964)             -8.1
